# test.summary: In vitro metabolism in rat liver microsomes
# Type: in vitro ADME
# test.settings: one hour of incubation at 37°, read-out: peptide remained intact
Residues, ends and D or L forms follow the SMILES beside them.
test.readout: remaining at 1 h (%)
Use % as the unit, but write only the number.

## Task Report remaining at 1 h for CC(=O)N[C@@H](CC(C)C)C(=O)N1CCC[C@H]1C(=O)N[C@@H](Cc1ccccc1)C(=O)N[C@@H](Cc1ccccc1)C(=O)N[C@@H](CC(=O)O)C(N)=O [Ac-iAβ5-Am, Ac-Leu Pro Phe Phe Asp-Am] (Ac-LPFFD-NH2) please.
## Result 76.3

###

# test.summary: In vitro assay of peptide stability in fresh human plasma
# Assay type: in vitro ADME
# test.settings: fresh human plasma, 37° C., FIG. 4a; read-out: time in which fifty percent of the peptide disappeared in plasma
Residues, ends and D or L forms follow the SMILES beside them.
test.readout: half-life at 0.2 μg/μl

## Task Report half-life at 0.2 μg/μl for CC(C)C[C@H](N)C(=O)N1CCC[C@H]1C(=O)N[C@@H](Cc1ccccc1)C(=O)N[C@@H](Cc1ccccc1)C(=O)N[C@@H](CC(=O)O)C(=O)O [iAβ5, Leu Pro Phe Phe Asp] (H-LPFFD-OH) please.
## Result ~5 min

###

# test.summary: In vitro metabolism in human liver microsomes
# Assay type: in vitro ADME
# test.settings: one hour of incubation at 37°, read-out: peptide remained intact
Residues, ends and D or L forms follow the SMILES beside them.
test.readout: remaining at 1 h (%)
Use % as the unit, but write only the number.

## Task Report remaining at 1 h for CC(=O)N[C@@H](CC(C)C)C(=O)N1CCC[C@H]1C(=O)N[C@@H](Cc1ccccc1)C(=O)N[C@@H](Cc1ccccc1)C(=O)N[C@@H](CC(=O)O)C(N)=O [Ac-iAβ5-Am, Ac-Leu Pro Phe Phe Asp-Am] (Ac-LPFFD-NH2) please.
## Result 81.5
